- Experimental system: EGFR (Homo sapiens, UniProt P00533)
- Sequence (P00533 25-1210): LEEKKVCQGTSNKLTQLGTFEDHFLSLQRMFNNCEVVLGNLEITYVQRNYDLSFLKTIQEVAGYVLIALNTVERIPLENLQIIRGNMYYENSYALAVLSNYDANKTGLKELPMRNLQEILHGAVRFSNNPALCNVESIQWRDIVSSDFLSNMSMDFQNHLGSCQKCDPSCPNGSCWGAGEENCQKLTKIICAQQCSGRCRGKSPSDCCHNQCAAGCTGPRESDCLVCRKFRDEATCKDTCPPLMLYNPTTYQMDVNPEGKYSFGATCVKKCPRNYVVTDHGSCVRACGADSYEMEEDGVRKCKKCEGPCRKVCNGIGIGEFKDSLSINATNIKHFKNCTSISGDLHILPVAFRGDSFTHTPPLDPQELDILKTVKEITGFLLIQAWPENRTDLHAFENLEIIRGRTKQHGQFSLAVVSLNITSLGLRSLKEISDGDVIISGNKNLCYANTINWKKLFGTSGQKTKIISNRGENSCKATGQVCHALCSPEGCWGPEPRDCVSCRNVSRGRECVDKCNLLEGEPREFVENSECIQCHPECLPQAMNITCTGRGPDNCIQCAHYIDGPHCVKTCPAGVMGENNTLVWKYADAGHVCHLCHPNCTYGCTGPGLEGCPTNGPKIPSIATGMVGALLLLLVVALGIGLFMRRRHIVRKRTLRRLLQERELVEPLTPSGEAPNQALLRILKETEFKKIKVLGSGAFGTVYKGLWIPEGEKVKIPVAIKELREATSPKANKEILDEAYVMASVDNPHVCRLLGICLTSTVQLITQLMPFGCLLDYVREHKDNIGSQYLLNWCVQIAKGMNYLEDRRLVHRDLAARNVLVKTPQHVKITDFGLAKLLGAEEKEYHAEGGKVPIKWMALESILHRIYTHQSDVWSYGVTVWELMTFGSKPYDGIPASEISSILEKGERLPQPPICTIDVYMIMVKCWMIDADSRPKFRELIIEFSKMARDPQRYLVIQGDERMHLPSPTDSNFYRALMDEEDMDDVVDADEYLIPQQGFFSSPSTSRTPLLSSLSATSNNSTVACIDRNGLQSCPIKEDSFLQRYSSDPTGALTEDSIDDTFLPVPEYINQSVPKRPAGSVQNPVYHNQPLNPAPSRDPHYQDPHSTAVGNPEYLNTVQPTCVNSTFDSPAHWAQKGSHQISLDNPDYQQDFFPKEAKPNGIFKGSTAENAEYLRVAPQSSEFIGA
- Assay: EGFR assay (cellular ELISA, NIH 3T3/C7 cells)
- Type: cell-based
- Parameters: expressed in transfected cells; host or cells: NIH 3T3/C7
- Condition label: read-out: cell EGF IC50
- Experimental: EGF Receptor kinase activity in cells genetically engineered to express human EGF-R can be measured as described below: Materials and Reagents. • a. […] 05-101 (UBI) (a monoclonal antibody recognizing an EGFR extracellular domain). • c. Anti-phosphotyosine antibody (anti-Ptyr) (polyclonal). • d. […] Assay Procedures. • 1. […] The maximal phosphotyrosine signal is determined by subtracting the value of the negative controls from the positive controls. […]
pIC50: −log10 of the molar value.
Assay endpoint: pIC50

The measured pIC50 associated with `COc1ccc(/C=C2/C(=O)Nc3ncccc32)cc1C1CCCCC1` reads < 4.00

pIC50 recorded for this compound, `COc1ccc(/C=C2/C(=O)Nc3ccccc32)cc1-c1ccsc1` , is < 4.00
